# Measured Target: T1, biotinylated hPD-L1-Avi-His (Acro Biosystems, PD1-H82E5) (human, UniProt Q9NZQ7 19-238, biotinylated)
# T1 construct: bought; also called Human PD-L1-His; not shown: Avi and His tags of the bought product
# T1 sequence (Q9NZQ7 19-238): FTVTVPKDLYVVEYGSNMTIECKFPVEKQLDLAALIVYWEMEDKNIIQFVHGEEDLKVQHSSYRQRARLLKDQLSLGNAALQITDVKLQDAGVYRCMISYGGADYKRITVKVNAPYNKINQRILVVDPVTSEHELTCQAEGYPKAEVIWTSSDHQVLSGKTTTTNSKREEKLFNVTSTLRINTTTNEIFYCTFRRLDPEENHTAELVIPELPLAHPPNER
# Protocol Text: SPR, antibody captured on Protein A chip, antigen in flow
Observation Type: Kd (nM)
Field: numeric (nM). Do not append units.

A selection of reference data follows.
>>> measured_value("G1-AA/E12v2 (antibody, human IgG1, kappa, L234A L235A, V domains shown, anti-PD-L1 IgG1 with LALA) VH: EVQLVQSGAEVKRPGASVKVSCKASGYPFTSYGISWVRQAPGQGLEWMGWISAYSGGTNYAQKLQGRVTMTTDTSTSTAYMELRSLRSDDTAVYYCARDLFPTIFGVSYYYYWGQGTLVTVSS VL: DIQMTQSPSTLSASVRDRVIITCRASQSIGNRLAWYQHKPGKAPKLLIYEASTSETGVPSRFSGSGSGTDFTLTISSLQPEDFATYYCQQSYSTPYTFGQGTKLEIKR")
0.21
>>> measured_value("G1-AA/E05v2 (antibody, human IgG1, kappa, L234A L235A, V domains shown, anti-PD-L1 IgG1 with LALA) VH: EVQLVQSGAEVKRPGASVKVSCKASGYTFTSYGISWVRQAPGQGLEWMGWISAYSGGTNYAQKLQGRVTMTTDTSTSTAYMELRSLRSDDTAVYYCARDLFPTIFGVSYYYYWGQGTLVTVSS VL: DIQMTQSPSTLSASVGDRVTITCRASQSISGRLAWYQQKPGKAPNLLIYEASNLESGVPSRFSGSGSGTEFTLTISSLQPEDFATYYCQQSYSTPRVTFGQGTKVEIKR")
0.5

Query G1-AA/lam-G02v3 (antibody, human IgG1, L234A L235A, V domains shown, anti-PD-L1 IgG1 with LALA, lambda light chain; also called G1-AA/lambdav3; G1-AA/Iam-G02v3) VH: EVQLVQSGAEVKRPGASVKVSCKASGYTFTSYGISWVRQAPGQGLEWMGWISAYSGGTNYAQKLQGRVTMTTDTSTSTAYMELRSLRSDDTAVYYCARDLFPTIFGVSYYYYWGQGTLVTVSS VL: QSALTQPASVSGSPGQSITISCTGTSSDVGGYNYVSWYQQFPGKAPKLMIFEVTNRPSGVSDRFSGSKSDNTASLTISGLQAEDEAEYYCSSFKRGSTLVVFG yields Kd of 1.34

Query G1-AA/G12v2 (antibody, human IgG1, kappa, L234A L235A, V domains shown, anti-PD-L1 IgG1 with LALA) VH: EVQLVQSGAEVKRPGASVKVSCKASGYTFTSYGISWVRQAPGQGLEWMGWISAYSGGTNYAQKLQGRVTMTTDTSTSTAYMELRSLRSDDTAVYYCARDLFPTIFGVSYYYYWGQGTLVTVSS VL: DIQMTQSPSTLSASVGDRVTITCRASQSISGRLAWYQQKPGKAPNLLIYEASNLESGVPSRFSGSGSGTEFTLTISSLQPEDFATYYCQQSYSWPRTFGQGTKVEIKR yields Kd of 0.44
